Values were extracted from ChEMBL document CHEMBL1122854.

System: Trypanosoma brucei rhodesiense
assay-remarks: Antitrypanosomal activity was evaluated against Trypanosoma rhodesiense infections in mice, at dose 424 mg/kg, administered subcutaneously
Assay type: functional
conditions-used: route subcutaneous
Flag rule - Delta MST less than 0.2 days flags YES; the remaining entries get NO.

Use the examples below as a reference point.
CC1(C)N=C(N)NC(Nc2ccc(CCc3ccc(NC4=NC(C)(C)N=C(N)N4)cc3)cc2)=N1.Cl    YES
CC1(C)N=C(N)N=C(N)N1c1ccc(N2C(N)=NC(N)=NC2(C)C)cc1.Cl.Cl    NO
Cc1ccc(N2C(N)=NC(N)=NC2(C)C)cc1NC(=O)Nc1cc(N2C(N)=NC(N)=NC2(C)C)ccc1C.Cl.Cl    YES
CC1(C)N=C(N)N=C(N)N1c1cccc2c(N3C(N)=NC(N)=NC3(C)C)cccc12.Cl.Cl    YES

Given CC1(C)N=C(N)N=C(N)N1c1ccc(CC(Cc2ccc(N3C(N)=NC(N)=NC3(C)C)cc2)C(=O)O)cc1.Cl.Cl , is recorded Delta MST strictly lower than 0.2 days?
YES

How about this molecule: CC1(C)N=C(N)N=C(N)N1c1ccc(OCCCCCCCCCCOc2ccc(N3C(N)=NC(N)=NC3(C)C)cc2)cc1.Cl.Cl
YES
